- Test system: 2008
- test_summary: Growth inhibition of human 2008 cells by crystal violet assay
- Type: functional, cell-based
pIC50: −log10 of the molar value.
Mark Not satisfied for pIC50 values under 5, and Satisfied for everything at or above.

Worked examples follow.
O=c1[nH]cc(F)c(=O)[nH]1 = Satisfied
O=C(CC1S/C(=N\N=C\c2ccccc2O)N=C1O)Nc1cccc(C(F)(F)F)c1 (configuration not stated) = Not satisfied
O=C(NC(=O)c1cn(CCNCCO)c(=O)[nH]c1=O)OCc1ccccc1 = Not satisfied

Entry `COc1ccc(C)cc1NC(=O)C(=O)N/N=C/c1ccc(OCC(N)=O)cc1` : is its pIC50 no less than 5?
Not satisfied

Determine whether this molecule has pIC50 no lower than 5: `CCN(CC)CCOC(=O)c1ccc(NS(=O)(=O)c2ccc(C(C)(C)C)cc2)cc1`
Not satisfied

Given Cc1ccc(C(=O)C2=C(O)C(=O)N(CCN(C)C)C2c2ccc(OCC(N)=O)cc2)o1 (configuration not stated) , state whether its pIC50 is at least 5.
Not satisfied
